targetEntity: W261A TAS2R16 (Homo sapiens, UniProt Q9NYV7, W261A)
Construct: FLAG (N)
Sequence (Q9NYV7 1-291 W261A): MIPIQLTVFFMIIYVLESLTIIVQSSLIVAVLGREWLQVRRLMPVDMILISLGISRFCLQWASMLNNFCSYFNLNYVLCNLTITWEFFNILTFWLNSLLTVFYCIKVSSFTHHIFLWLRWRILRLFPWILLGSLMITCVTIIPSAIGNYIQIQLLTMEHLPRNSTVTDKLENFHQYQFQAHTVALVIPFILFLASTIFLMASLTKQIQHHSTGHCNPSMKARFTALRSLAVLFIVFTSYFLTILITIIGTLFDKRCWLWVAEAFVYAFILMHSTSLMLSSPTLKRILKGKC
measurementNotes: Ca2+ flux assay, W261A TAS2R16 variant
measurementContext: Fig. 5b dose-response, W261A TAS2R16
assayReadout: EC50 (mM)

# molecule, valueReported
rows = [
    ("O=[N+]([O-])c1ccc(O[C@@H]2O[C@H](CO)[C@@H](O)[C@H](O)[C@H]2O)cc1 [4-NP-β-glucoside, 4-nitrophenyl-β-D-glucopyranoside]", 1.8),
    ("O=[N+]([O-])c1ccc(O[C@@H]2O[C@H](CO)[C@@H](O)[C@H](O)[C@@H]2O)cc1 [4-NP-β-mannoside, 4-nitrophenyl-β-D-mannopyranoside]", 0.2),
]
